FYI, the data here is from ChEMBL document CHEMBL1287752.

Molecular target: Tyrosinase (Agaricus bisporus)
Sequence (O42713 whole entry): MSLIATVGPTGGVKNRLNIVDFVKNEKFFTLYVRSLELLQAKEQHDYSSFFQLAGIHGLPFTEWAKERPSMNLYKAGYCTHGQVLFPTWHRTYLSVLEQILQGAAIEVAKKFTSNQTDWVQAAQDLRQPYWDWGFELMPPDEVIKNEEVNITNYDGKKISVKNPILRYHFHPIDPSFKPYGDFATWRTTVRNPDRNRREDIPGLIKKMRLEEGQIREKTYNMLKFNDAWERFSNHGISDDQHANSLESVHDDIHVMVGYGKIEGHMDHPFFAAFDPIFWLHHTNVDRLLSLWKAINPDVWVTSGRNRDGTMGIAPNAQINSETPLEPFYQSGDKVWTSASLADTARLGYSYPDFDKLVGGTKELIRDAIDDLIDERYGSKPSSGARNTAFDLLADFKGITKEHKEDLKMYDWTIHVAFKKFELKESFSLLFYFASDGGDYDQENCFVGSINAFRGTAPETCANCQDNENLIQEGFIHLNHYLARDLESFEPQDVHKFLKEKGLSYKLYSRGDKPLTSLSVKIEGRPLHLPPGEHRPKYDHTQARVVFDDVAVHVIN
Experiment: Inhibition of mushroom tyrosinase after 20 mins by spectrophotometric analysis
endpoint_name: IC50

Enquiry: // IC50 lookup, key: C[C@@H]1O[C@@H](Oc2cc(O)c3c(=O)c(O)c(-c4ccc(O)cc4)oc3c2)[C@H](O)[C@H](O)[C@H]1O [ALPHA-RHAMNOISOROBIN]
Return: > 400 µM
